Entry source: ChEMBL document CHEMBL1764988

- Species on record: Mus musculus
- protocol.details: Effect on behavioral activity in ICR mouse assessed as inhibition of nicotine-induced locomotory response
- Format: functional
endpoint.label: AD50 (mg/kg)
Report only the number, with the unit mg/kg understood.

Worked examples follow.
{"line.notation": "CCC[C@@H]1NC(C)(C)CO[C@@]1(O)c1cccc(Cl)c1", "endpoint.unit": "mg/kg", "AD50": 0.49}
{"line.notation": "C[C@@H]1N(C)C(C)(C)CO[C@@]1(O)c1cccc(Cl)c1", "endpoint.unit": "mg/kg", "AD50": 3.8}

Task: Report AD50 for `C[C@@H]1NC(C)(C)CO[C@@]1(O)c1cccc(Br)c1` please.
Result: 2.1
